# System: COLO 205
# method-notes: NCI tumour cell line growth inhibition, 48 h
Calls of active or inactive are those of the source. No stated cut-off is given here; in the data, active = GI50 up to about 1.1 µM and inactive = higher.
Hi! Could you answer with just one of these? yes (1) (active), no (0) (inactive)

Some entries whose results are on file:
CC(C)=C[C@@H]1C[C@H](n2cc(C)c(=O)[nH]c2=O)ON1CCO = no (0)
Cc1ccc(C(=O)/C=C2\Nc3ccccc3NC2=O)cc1 = no (0)
Cc1nc2sccn2c1C(=O)NNC(N)=S = no (0)

Ask: Status in this test for COc1ccc(C(=O)Nc2ccc(O)c(=O)cc2)cc1 ?
Reply: no (0)

Ask: Field: outcome | Entry: COc1ccccc1/C=C1\N=C(C)OC1=O
Reply: no (0)

----------
# Test system: SW-620
# method-notes: NCI tumour cell line growth inhibition, 48 h
The source made the active and inactive calls. Cut-off read from the data, not from the text of the source: active = GI50 up to about 1.1 µM and inactive = higher.
metric-name: GI50

CSc1ncc2c(n1)-c1ccccc1OC2NC(C)(C)C (stereo not drawn) = > 100 µM (inactive)
CC=C/C=C/[C@@H]1O[C@](O)([C@H](CC)C(=O)NC/C=C/C=C(\C)[C@@H](OC)[C@@H](C)[C@@H]2O[C@H](/C=C/C=C/C=C(\C)C(=O)c3c(O)cc[nH]c3=O)[C@H](O)[C@@H]2O)[C@H](O)[C@H](O)C1(C)C = > 100 µM (inactive)
S=C1N(/N=C/c2c3ccccc3cc3ccccc23)C(=N\c2ccccc2)/C(=N/c2ccccc2)N1c1ccccc1 = > 100 µM (inactive)
FC(F)=C(c1ccc(-c2ccc(Cl)cc2)cc1)C(F)(F)F = 20 µM (inactive)

Please go through the list and note GI50 for each molecule.
1. CCOP(=O)(OCC)OC1CC(n2cc(C)c(=O)n(C)c2=O)OC1CO[Si](C)(C)C(C)(C)C (stereo not drawn)
2. CC1O[C@@H]2CCCCC(=O)[C@]2(C)[C@H]1C (stereo partly drawn)
3. CCCCCCCCCCCCCCCCCC(=O)OCC(C[As](=O)(O)O)OC(=O)CCCCCCCCCCCCCCCCC (stereo not drawn)

Reply:
1. > 100 µM (inactive)
2. > 100 µM (inactive)
3. 16 µM (inactive)

Ask: Find the measured GI50: item CCN(CC)CCC1(C(=O)OC)SCCc2ccc(C)cc21 (stereo not drawn) , target or system SW-620.
Reply: > 100 µM (inactive)

----------
# Test system: RPMI-8226
# method-notes: NCI tumour cell line growth inhibition, 48 h
Calls of active or inactive are those of the source. Rule as the data show it: active = GI50 up to about 1.1 µM and inactive = higher.
metric-name: GI50

Please review the entries below; each comes with its answer.
CN(C)c1ccc(/C=C(\NC(=O)c2ccccc2)C(=O)Nc2ccccc2C(=O)NN2C(=O)CSC2c2ccc(N(C)C)cc2)cc1 (centres undefined) = > 100 µM (inactive)
CN(C)CCC1(C2=CCCC2)CC/C(=C\c2ccc(Cl)cc2)C1=O (centres undefined) = 5.73 µM (inactive)
O=C(NC(=O)c1ccccc1[N+](=O)[O-])Nc1ccc(Oc2ncc(Cl)cn2)c(C(F)(F)F)c1 = 0.0208 µM (active)

Proceed to the following item.
Ask: Query (compound): O=C(Nc1ccccc1C(=O)NCc1ccccc1)/C(=C/c1ccccc1O)NC(=O)c1ccccc1 ; field requested: GI50
Reply: > 100 µM (inactive)

----------
# Tested on: MCF7
# method-notes: NCI tumour cell line growth inhibition, 48 h
Calls of active or inactive are those of the source. Cut-off read from the data, not from the text of the source: active = GI50 up to about 1.1 µM and inactive = higher.
Could you please pick one outcome from this set? active, inactive

CC(C)C/C=C/C1=NN(c2cccc(S(=O)(=O)O)c2)C2(C1)SCC(=O)N2c1nc2ccccc2s1 (stereo not given) = inactive
O=CN/C=C/c1cc(O)ccc1O = inactive
C=C[C@@]1(C)CC(=O)[C@]2(O)[C@@]3(C)[C@@H](OC(C)=O)CCC(C)(C)[C@@H]3[C@H](O)[C@H](OC(C)=O)[C@@]2(C)O1 = inactive

Ask: # fetch the recorded call for C=C(C)CNCC(=C)C.Oc1c(Cl)c(Cl)c(Cl)c(Cl)c1Cl here
Reply: inactive

Ask: Each compound tested received a call. Report the one for C=CCn1c(-c2ccc(Cl)cc2Cl)cs/c1=N\c1c(C)n(C)n(-c2ccccc2)c1=O .
Reply: inactive

Ask: In this assay, the call recorded for CC(C)C1CSC2N1C(=O)C2(OCc1ccccc1)C1CC1 (stereo not given) was what?
Reply: inactive

Ask: # lookup: test call for O=C(OCC1OC(n2nc(Cn3nnc(-c4cccnc4)n3)n(-c3cccc4ccccc34)c2=S)C(OC(=O)c2ccccc2)C1OC(=O)c1ccccc1)c1ccccc1 (stereo not given)
Reply: inactive

Ask: Fill in: this test's call for CC1(C)SC2C(NC(=O)C(C(=O)O)c3ccccc3)C(=O)N2C1C(=O)O (stereo not given) is ___
Reply: inactive

Ask: # fetch the recorded call for CN(C1=NCCO1)c1cccc2ccccc12 here
Reply: inactive

Ask: Lab log entry: CCN(CC)CCNc1c2ccccc2nc2cccc([N+](=O)[O-])c12 — outcome as called in the assay?
Reply: active

Ask: Could you please tell me the result logged for CCCCCCCCCCC(O)C1CCC(C(O)CCC(O)C2CCC(CCCCCCC[C@H](O)CC3=C[C@@H](C)OC3=O)O2)O1 (stereo not given in full) in this assay?
Reply: inactive

Ask: Please indicate how the test categorized Cc1nc2ccccc2c(=O)n1NC(=O)c1ccc(CS)cc1 .
Reply: inactive

Ask: Recorded test call requested for CCOC(=O)C1=NN(c2ccc(Cl)cc2)C2=CC(C)=NN(C)C(=S)N21
Reply: inactive

Ask: What did this assay record as the result for CC1CCN(c2nnc(Cl)cc2C(=O)c2ccccc2)CC1 ?
Reply: inactive

Ask: Record request — test call for COc1cc(/C=N/NC(=O)c2c(Cl)c(Cl)c(Cl)c(Cl)c2-c2nc3ccccc3[nH]2)ccc1O
Reply: inactive

Ask: How was NS(=O)(=O)c1ccc(-c2ccc([As](=O)(O)O)cc2)cc1 classified in this test?
Reply: inactive
